# Tgt: StrepII-SUMO-DUX4-His6 (Homo sapiens, UniProt Q9UBX2 1-424)
# Sequence (Q9UBX2 whole entry): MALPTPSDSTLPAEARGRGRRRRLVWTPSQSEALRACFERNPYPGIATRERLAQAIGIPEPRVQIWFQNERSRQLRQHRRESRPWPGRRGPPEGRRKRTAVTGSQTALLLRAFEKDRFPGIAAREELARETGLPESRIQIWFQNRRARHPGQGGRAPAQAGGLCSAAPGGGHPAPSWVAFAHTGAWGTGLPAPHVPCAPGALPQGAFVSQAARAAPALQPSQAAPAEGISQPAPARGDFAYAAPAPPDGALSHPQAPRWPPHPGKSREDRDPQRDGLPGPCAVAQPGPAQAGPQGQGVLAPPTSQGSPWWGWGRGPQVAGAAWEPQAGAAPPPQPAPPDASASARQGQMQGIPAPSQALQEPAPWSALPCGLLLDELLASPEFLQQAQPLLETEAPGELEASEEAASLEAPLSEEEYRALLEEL
# Test Summary: fluorescence polarization
Test Readout: Kd

**Q:** What Kd value was documented for this binder, GCTAACTTAATCAACCGCAGGTTGATTAGCCCATTAGC (structured_DNA) [Kd aptamer as printed in text and Fig 7] ?
**A:** ~20 nM
